This collection of values is drawn from PubChem BioAssay AID2060496.

test system: 276233-004-R-J1-PDC complex spheroid viability; assay: Anticancer human tumor 276233-004-R-J1-PDC patient-derived colon adenocarcinoma cell line growth inhibition [GQUAD]; conditions: second compound 0.0316 µM; first compound 0.1 µM; stronger effect = lower value;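 note: spheroids exposed to drugs for seven days; 100% = DMSO vehicle control viability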
result_type: viability, T/C (%)
Express your answer in %, writing the number without its unit.

Answered examples (4):
COc1ccc([C@@H](O)c2cc(-c3ncnc4cc(N5CCOCC5)ccc34)c(F)cc2Cl)nn1 + CN(C)c1ccc(Nc2c3ccc(NC(=O)CCN4CCCC4)cc3nc3cc(NC(=O)CCN4CCCC4)ccc23)cc1 : 94.6
COc1cccc2c1C(=O)c1c(O)c3c(c(O)c1C2=O)CC(O)(C(=O)CO)CC3OC1CC(N)C(O)C(C)O1 (stereo not given) + Cc1cnc(CNC(=O)c2c(=O)c3ccc(N4CCCN(C)CC4)nc3n3c2sc2ccccc23)cn1 : 87.3
COc1cccc2c1C(=O)c1c(O)c3c(c(O)c1C2=O)CC(O)(C(=O)CO)CC3OC1CC(N)C(O)C(C)O1 (stereo not given) + Cc1[nH]c2ccc(F)cc2c1-c1nc2c3cccnc3c3ncccc3c2[nH]1 : 79.9
CC(C)n1c(=O)n(C)c2cnc3cc(F)c(-c4ccc(OCCCN5CCCCC5)nc4)cc3c21 + CN(C)c1ccc(Nc2c3ccc(NC(=O)CCN4CCCC4)cc3nc3cc(NC(=O)CCN4CCCC4)ccc23)cc1 : 103

Now look at this one.
Name the recorded viability, T/C of the molecule listed here: COc1cccc2c1C(=O)c1c(O)c3c(c(O)c1C2=O)CC(O)(C(=O)CO)CC3OC1CC(N)C(O)C(C)O1 (stereo not given) + CN(C)c1ccc(Nc2c3ccc(NC(=O)CCN4CCCC4)cc3nc3cc(NC(=O)CCN4CCCC4)ccc23)cc1 94.7
